target: 11β-HSD1 (Homo sapiens); construct: detecting cortisol generated from cortisterone by human liver microsomes; from tissue; host or cells: human liver microsomes; experiment: In vitro inhibition of 11β-HSD1, HTRF detection of cortisol generated by human liver microsomes; assay type: biochemical; details: cortisone 80 nM, NADPH 200 μM, 1 hour at 37° C., pH 6.0
Sequence (P28845 whole entry): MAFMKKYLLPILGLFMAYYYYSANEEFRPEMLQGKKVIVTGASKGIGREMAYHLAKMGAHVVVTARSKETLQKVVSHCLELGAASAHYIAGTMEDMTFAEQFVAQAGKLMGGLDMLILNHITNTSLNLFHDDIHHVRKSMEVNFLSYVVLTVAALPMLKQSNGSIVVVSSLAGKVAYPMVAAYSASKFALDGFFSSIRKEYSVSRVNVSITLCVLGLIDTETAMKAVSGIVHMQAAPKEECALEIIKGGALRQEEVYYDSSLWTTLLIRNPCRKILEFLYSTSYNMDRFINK
reported.property: IC50 (nM)

P = CC(C)(O)C[C@]1(c2ccccc2)CCN([C@H](c2ccc(-c3ccn(C4CC4)c(=O)c3)cc2)C2CC2)C(=O)O1
Q = Cn1cc(-c2ccc([C@H](C3CC3)N3CC[C@](CC(C)(C)O)(c4ccccc4)OC3=O)cc2)ccc1=O
R = Cn1ccc(-c2ccc(C(C3CC3)N3CCC(CC(C)(C)O)(c4ccccc4)OC3=O)cc2)cc1=O (stereo not shown)
Ask | Ascending by IC50, please: list the molecules accordingly. Put the labels in the requested order and list them out.
Reply | P, Q, R
(P: 38 nM, Q: 70 nM, R: 111 nM)
